meta.source: PubChem BioAssay (NCI)

# System: MDA-MB-231 breast
# method-summary: NCI tumour cell line growth inhibition, 48 h
Reported TGI by item:

Cc1ccc(C(=Nc2ccccc2)N=P(c2ccccc2)(c2ccccc2)c2ccccc2)cc1 :: 7.75 µM
CCOC(=O)c1ccc2c(c1)nc(-c1ccc(Cl)cc1)n2-c1cc(C(C)(C)C)[nH]n1 :: 40.8 µM
CN(C)c1ccc(C2SCC(=O)N2c2nc3cc4sc(N5C(=O)CSC5c5ccc(N(C)C)cc5)nc4cc3s2)cc1 (centres undefined) :: > 100 µM
COc1ccc(-c2nn(C(=O)NCCN(C)C)cc2-c2ccncc2)cc1Cl :: > 100 µM

Incoming: # query: TGI | item "O=C1c2ccccc2-c2c1c1ccc([N+](=O)[O-])cc1c(=O)n2CCCN1CCOCC1" | system: MDA-MB-231 breast
Outgoing: > 87.4 µM

----------
# System: HCT-15 colon
# method-summary: NCI tumour cell line growth inhibition, 48 h
attribute-measured: TGI

// below: answered compounds
CCCCN(CCCC)CC(C(=O)Nc1ccccc1)/C(C)=N\NC(=O)c1ccncc1 (stereo not given) :: > 100 µM
O=C(c1cc(Cl)ccc1Cl)N1CCN(c2ccc(Cl)c(Cl)c2)CC1 :: > 100 µM
S=C1C(=Nc2ccccc2)N(C2CCCCC2)C(=NC2CCCCC2)N1c1ccccc1 :: > 100 µM
O=C(NCc1ccccc1)c1cc2ccccc2oc1=Nc1ccccc1F :: > 100 µM

Incoming: TGI lookup needed for CN(C)CCOc1ccc2[nH]c(C(=O)N3CC(CCl)c4c3cc(NC(=O)OCc3ccc([N+](=O)[O-])cc3)c3ccccc43)cc2c1 (stereo not given) , thanks.
Outgoing: 3.58 µM

----------
# System: HCT-116 colon
# method-summary: NCI tumour cell line growth inhibition, 48 h
attribute-measured: TGI

Answered examples (3):
O=C(O)/C=C/C=C/c1ccc2c(c1)OCO2 :: > 100 µM
CCCCCCCC/C=C(\Br)C(O)C(Br)Br (centres undefined) :: > 100 µM
CC[C@]1(O)CC2CN(CCCc3c([nH]c4ccccc34)[C@@](C(=O)OC)(c3cc4c(cc3OC)N(C)C3C45CCN4CC=C[C@](CC)(C45)C(OC(C)=O)[C@@]3(O)C(=O)OC)C2)C1 (some centres undefined) :: > 10 µM

Shift focus to the following entry.
Incoming: Reported TGI for "Nc1nc(N)c(-c2cccc(C(F)(F)F)c2)c(Cc2cccc(C(F)(F)F)c2)n1" : what is it?
Outgoing: 12.2 µM

----------
The following molecules are shown together with reported GI50 values.
# System: SF-295 CNS
# method-summary: NCI tumour cell line growth inhibition, 48 h

CS(=O)(=O)Nc1ccc(Nc2c3ccccc3nc3cc([N+](=O)[O-])ccc23)cc1 :: 1420 nM
COc1ccc(C(=O)/C=C/c2c(OC)cc(OC)cc2OC)c(OC)c1 :: 987 nM
CCCCCCCCCCCCCCCCSC(=NCC)NCC :: 1470 nM

Then there is this molecule:
Incoming: Entry under review: "COc1ccc(-c2nn(C(=O)NCCN(C)C)cc2-c2ccncc2)cc1Cl" . Reported GI50?
Outgoing: 3000 nM

----------
# Test system: RXF-631 renal
# method-summary: NCI tumour cell line growth inhibition, 48 h
attribute-measured: TGI

CN1CCC(SC2Cc3cc(Cl)ccc3Sc3ccccc32)CC1 (centres undefined) :: 27.9 µM
O=c1[nH]c2nc3ccccc3n2c(O)c1-c1ccccc1 :: > 100 µM
O=C(COc1ccc2c(=O)cc(-c3ccc(Cl)cc3)oc2c1)N1CCN(c2ccccc2)CC1 :: > 100 µM
NC(=Nc1ccc(S(=O)(=O)Nc2cnc3ccccc3n2)cc1)/N=C(/N)Nc1ccc(Br)cc1 :: > 100 µM
CCO.CCO.Oc1ccc(Nc2ncns2)cc1.Oc1ccc(Nc2ncns2)cc1.[Ti] :: > 100 µM

Incoming: Reported TGI, molecule "Cc1ccc(S(=O)(=O)n2cc(/C=C/C#N)c(/C=C/C#N)c2)cc1" : ____
Outgoing: > 100 µM

Incoming: Subsequent entry: "Cc1[nH]c2ccccc2c1-c1n[nH]c(=O)c2ccccc12"
Outgoing: 66.1 µM

Incoming: Then what about the molecule "CCOC(=O)/C(ON)=C(/CC/C(C(=O)OC)=C(\ON)C(=O)OCC)C(=O)OC" ?
Outgoing: > 100 µM

Incoming: Also need "C[n+]1[se]c2ccccc2c1Cl" , thanks.
Outgoing: > 67.2 µM
